The reported numbers originate from ChEMBL document CHEMBL2046344.

# target.of.assay: Collagenase 3 (Homo sapiens)
# test.details: Inhibition of human recombinant MMP13 catalytic domain incubated for 20 mins by fluorimetric assay
Mark each entry label 1 if its IC50 sits below 20 µM, and label 0 for all others.

| compound | answer.label |
| --- | --- |
| COC(=O)[C@@H](Cc1ccc(O)c(O)c1)OC(=O)/C=C/c1ccc(O)c2c1[C@H](C(=O)OC)[C@@H](c1ccc(O)c(O)c1)O2 [DIMETHYL LITHOSPERMATE] | label 1 |
| CCCCOC(=O)[C@H]1c2c(/C=C/C(=O)O[C@H](Cc3ccc(O)c(O)c3)C(=O)O)ccc(O)c2O[C@@H]1c1ccc(O)c(O)c1 | label 0 |
| O=C(c1c(O)cc(O)cc1O)C1c2c(cc(O)c3c2O[C@H](c2ccc(O)cc2)[C@@H](O)C3)OC1c1ccc(O)cc1 (stereo partly drawn) [DIHYDRODAPHNODORIN B] | label 0 |
| COC(=O)[C@@H](Cc1ccc(O)c(O)c1)OC(=O)/C=C/c1ccc(O)c(O)c1 [METHYL ROSMARINATE] | label 0 |
| CC(C)CC(=O)OC(C(=O)O)C(C)C (stereo not drawn) | label 0 |
| COC(=O)C1(O)CC(OC(=O)/C=C/c2ccc(O)c(O)c2)C(O)C(OC(=O)/C=C/c2ccc(O)c(O)c2)C1 (stereo not drawn) | label 1 |
| CNC(=O)C(CCc1ccccc1)NC(=O)C(CC(=O)NO)CC(C)C (stereo not drawn) | label 1 |
| O=c1c(O)c(-c2ccc(O)c(O)c2)oc2cc(O)cc(O)c12 | label 1 |
